These entries and their values trace back to patent US10508105B2.

Below: a set of entries, each annotated with reported EC50.
experimental target: human mGlu4 (Homo sapiens (Human), UniProt Q14833)
Sequence (Q14833 33-912): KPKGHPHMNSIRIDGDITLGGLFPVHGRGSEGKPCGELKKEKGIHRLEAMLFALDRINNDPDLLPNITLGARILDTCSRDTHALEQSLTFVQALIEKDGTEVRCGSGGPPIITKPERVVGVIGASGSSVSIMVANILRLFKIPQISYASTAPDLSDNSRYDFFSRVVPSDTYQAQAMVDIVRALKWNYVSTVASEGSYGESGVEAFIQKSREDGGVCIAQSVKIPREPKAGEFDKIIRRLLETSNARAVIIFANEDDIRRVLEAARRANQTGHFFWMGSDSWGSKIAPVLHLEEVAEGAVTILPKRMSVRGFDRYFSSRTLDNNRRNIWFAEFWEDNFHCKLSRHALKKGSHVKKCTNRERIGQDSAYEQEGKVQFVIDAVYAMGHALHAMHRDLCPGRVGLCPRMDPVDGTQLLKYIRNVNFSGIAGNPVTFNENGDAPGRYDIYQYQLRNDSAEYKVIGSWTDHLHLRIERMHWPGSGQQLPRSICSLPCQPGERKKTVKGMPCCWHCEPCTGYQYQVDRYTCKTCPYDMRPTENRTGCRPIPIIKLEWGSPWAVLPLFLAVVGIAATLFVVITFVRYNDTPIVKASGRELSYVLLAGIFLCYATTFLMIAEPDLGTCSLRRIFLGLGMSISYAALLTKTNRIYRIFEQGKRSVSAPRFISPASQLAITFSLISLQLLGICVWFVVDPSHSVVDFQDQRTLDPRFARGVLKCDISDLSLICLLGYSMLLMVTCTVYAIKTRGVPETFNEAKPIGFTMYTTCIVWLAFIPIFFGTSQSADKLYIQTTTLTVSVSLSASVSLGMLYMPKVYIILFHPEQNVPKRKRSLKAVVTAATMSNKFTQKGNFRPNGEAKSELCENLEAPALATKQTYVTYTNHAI
protocol text: mGlu4 PAM assay in human mGlu4/Gqi5 cells with ~EC20 glutamate (Hamamatsu FDSS)
Format: cell-based
condition label: ~EC20 concentration of glutamate, read-out: mGlu4 PAM EC50
From the text: The disclosed compounds and compositions can be evaluated for their ability to act as a potentiatior of metabotropic glutamate receptor activity, in particular mGluR4 activity, by any suitable known methodology known in the art. […] The cells were loaded with either a Ca2+-sensitive fluorescent dye or the thallium responsive dye and the plates were washed and placed into a suitable kinetic plate reader. […]
readout kind: EC50 (nM)

[[record]]
molecule = "Cn1nc(OCCOc2ccccc2F)c2ccc(Nc3n[nH]c4cccnc34)cc21 [Compound 19]"
measured = 483

[[record]]
molecule = "Cn1nc(O[C@H]2CCOC2)c2ccc(Nc3n[nH]c4ncccc34)cc21 [Compound 33]"
measured = 575

[[record]]
molecule = "Cn1nc(OC2CCOC2)c2ccc(Nc3n[nH]c4cccnc34)cc21 (stereo not drawn) [Compound 28]"
measured = 726

[[record]]
molecule = "Cn1nc(OCC2CCOC2)c2ccc(NC(=O)c3nccnc3N)cc21 (stereo not drawn) [Compound 92]"
measured = 115

[[record]]
molecule = "Cn1nc(OCC2CCOCC2)c2ccc(Nc3n[nH]c4cccnc34)cc21 [Compound 51]"
measured = 40.4

[[record]]
molecule = "CC1CC(COc2nn(C)c3cc(NC(=O)c4ccccn4)ccc23)CC(C)O1 (stereo not drawn) [Compound 107]"
measured = 45.1

[[record]]
molecule = "Cn1nc(OCCN2CCOCC2)c2ccc(NC(=O)c3ncccc3O)cc21 [Compound 78]"
measured = 255

[[record]]
molecule = "Cn1nc(OC2CCOCC2)c2ccc(Nc3n[nH]c4cccnc34)cc21 [Compound 20]"
measured = 45.4

[[record]]
molecule = "Cn1nc(OCCN2CCOCC2)c2c(Cl)cc(Nc3n[nH]c4cccnc34)cc21 [Compound 24]"
measured = 322


###

experimental target: human mGlu4 (Homo sapiens (Human), UniProt Q14833)
protocol text: mGlu4 PAM assay in human mGlu4/Gqi5 cells with ~EC20 glutamate (Hamamatsu FDSS)
Type: cell-based
condition label: ~EC20 concentration of glutamate, read-out: hmGluR4 PAM EC50
pEC50: −log10 of the molar value.
readout kind: pEC50

[[record]]
compound = "Cn1nc(OCC2CCOCC2)c2ccc(NC(=O)c3ccc(F)cn3)cc21"
measured = 7.00

[[record]]
compound = "Cn1nc(OCC2CCOC2)c2ccc(NC(=O)c3ncccc3N)cc21 (centres unmarked) [drawing 241]"
measured = 7.12

[[record]]
compound = "Cn1nc(OC[C@@H]2CCOC2)c2ccc(NC(=O)c3ncccc3N)cc21 [drawing 244]"
measured = 7.56

[[record]]
compound = "Cn1nc(OCC2CCOC2)c2ncc(NC(=O)c3ncccc3N)cc21 (centres unmarked) [drawing 242]"
measured = 7.06

[[record]]
compound = "Cn1nc(OC[C@@H]2CCOC2)c2ncc(NC(=O)c3ncccc3N)cc21 [drawing 246]"
measured = 6.92

[[record]]
compound = "Cn1nc(OCC2CCOC2)c2ccc(NC(=O)c3cccc(F)n3)cc21 (centres unmarked) [drawing 251]"
measured = 6.58

[[record]]
compound = "Cn1nc(OC[C@@H]2COCCO2)c2ccc(NC(=O)c3ccccn3)cc21"
measured = 6.92

[[record]]
compound = "O=C(Nc1ccc2c(OC[C@H]3CCOC3)n[nH]c2c1)c1ccccn1"
measured = 6.64

